# Tested on: SK-MEL-28 melanoma
# PROTOCOL_NOTES: NCI tumour cell line growth inhibition, 48 h
*1 amine or outer side, *2 acyl side, *3 side chain or, on linkers, in order; H or OH if unused. Where a SMILES comes first, the peptide text is derived from it. [ ]: non-standard residue; d: D form. ξ: configuration not given here. X21 = CC[C@@H](C)C(N[*:1])C(=O)[*:2]; ξR = N=C(N)NCCCC(N)C(=O)O; ξI = CCC(C)C(N)C(=O)O; ξL = CC(C)CC(N)C(=O)O; ξK = NCCCCC(N)C(=O)O; ξV = CC(C)C(N)C(=O)O; ξA = CC(N)C(=O)O
ASSAY_READOUT: GI50

Reference set (3 entries):
{"MOLECULE": "CNCCCNCCCN1C(=O)c2ccc3c4c(ccc(c24)C1=O)C(=O)N(CCCNCc1ccccc1OC)C3=O", "GI50": "1010 nM"}
{"MOLECULE": "C1=Nc2ccccc2C=Nc2ccccc2C=Nc2ccccc2C=Nc2ccccc21.[Cl-].[Pt+2]", "GI50": "14800 nM"}
{"MOLECULE": "Cc1[nH]nc2c1N=C(c1ccccc1Cl)c1cc([N+](=O)[O-])ccc1N2", "GI50": "> 25000 nM"}

Give the reported GI50 for this molecule. CCC(C)C1NC(=O)C(CC(C)C)NC(=O)C(C)NC(=O)C(C(C)C)NC(=O)C(CCCCN)NC(=O)C(CC(C)C)NC(=O)C(C(C)C)NC(=O)[C@H](C)NC(=O)C(C(C)CC)NC(=O)C(CCCN=C(N)N)NC(=O)C(CCCCN)NC(=O)C(CCCN=C(N)N)NC(=O)C(CCCCN)NC(=O)C([C@H](C)CC)NC(=O)C(CCCCN)NC1=O (stereo partly specified) (cyclo(A[ξV][ξL][ξK][ξV][ξA][ξL][ξI][ξK][X21][ξK][ξR][ξK][ξR][ξI])) 1820 nM

Find the measured GI50 of COc1ccc2c(c1)C1(C(=O)N2)C(C#N)=C(c2ccccc2)Nc2c1c(-c1ccccc1)nn2-c1ccccc1 (stereo unspecified) and report it. 2210 nM

For the molecule CCSc1nnc(-c2ccc3ccccc3c2O)n1-c1ccc(Cl)cc1 , report GI50. > 100000 nM

Annotate the molecule C=C1C(=O)O[C@H]2[C@H]1CC/C(Cn1cc(-c3cc(C)c(C)cc3C)nn1)=C\CC[C@@]1(C)O[C@@H]21 with its measured GI50. 1400 nM

Provide GI50 value for the following molecule: C=C1C[C@@]2(C)C(CC[C@]3(C)C2CC=C2C4CC(C)(C)C[C@@H](OC(=O)/C(C)=C\C)[C@]4(C(=O)O)CC[C@]23C)C(C)(C)C1=O (stereo partly specified) 2320 nM

----------
# System: KM12 colon
# PROTOCOL_NOTES: NCI tumour cell line growth inhibition, 48 h
Reported TGI by item:

Sample answers from the record:
{"COMPOUND": "COC(=O)C1C(OCc2ccccc2)C2CCC1(OC)C=C2C (stereo not given)", "RESULT": "> 100 µM"}
{"COMPOUND": "C=C1C(=O)OC2CC(C)C3C=CC(=O)C3CC12 (stereo not given)", "RESULT": "18.9 µM"}
{"COMPOUND": "NC(=O)c1ccc2nc3c(n2c1)C(=O)C(=O)c1ccccc1-3", "RESULT": "2.97 µM"}
{"COMPOUND": "Cc1c(N=Cc2ccc(N(CCC#N)CCC#N)cc2)c(=O)n(-c2ccccc2)n1C", "RESULT": "> 100 µM"}
{"COMPOUND": "CCCN(CCSSCCNc1nc(N(C)O)nc(N(C)O)n1)c1nc(N(C)O)nc(N(C)O)n1", "RESULT": "> 100 µM"}

Query compound follows.
Dear colleague, please send me the reported TGI for CC(=O)O[C@H]1C[C@H]2C(=S)Nc3ccccc3C(=S)N2C1 when you can. > 100 µM
